molecular target: S. pyogenes SKKanGAS, kanamycin survival, BacTiterGlo, 6 h; assay: S. pyogenes SKKanGAS kanamycin growth inhibitors – SKKanGAS strain, luminescence, dose confirmation, streptokinase promoter inhibitor project, dose response (AID 1902);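 further: lower survival reflects blocked streptokinase promoter driving kanamycin resistance gene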
Active and inactive are the calls of the source.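 How the source made its calls: active means EC50 no more than a set limit of log units above the highest dose; inactive means the rest.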
Hi there, use one of these labels in your reply, thanks! yes (1) for active, no (0) for inactive

Sample answers from the record:
molecule=Fc1ccc(CSc2ncnc3sc4c(c23)CCCC4)cc1 category_label="yes (1)"
molecule=CN1C(=O)/C(=C/c2ccccc2Cl)Sc2ccc(C(=O)NCc3cccnc3)cc21 category_label="yes (1)"

Recorded test call requested for CCCC(=O)NC(c1ccc2c(c1)OCO2)c1cc(Cl)c2cccnc2c1O (stereo unspecified) yes (1)

Recorded test call requested for Cc1ccc(Cc2cnc(N3C(=N)SC(c4ccccc4)C3=O)s2)cc1 (stereo unspecified) yes (1)

Recorded test call requested for `CCn1c(COc2ccc(C)cc2)nnc1SCc1ccc(C#N)cc1` no (0)

Recorded test call requested for `Oc1ccc(/C=N/n2c3ccccc3c3ccccc32)cc1` yes (1)
